- target.of.assay: T1, human ROR1 (full-length, on the cell surface) (human, UniProt Q01973 30-937)
- T1 construct: whole, on cells; the tumour cell lines carry their own ROR1; also called Ba/F3-ROR1 cells; Jeko-1
- assay.summary: flow cytometry, Jeko-1 cells
pEC50: −log10 of the molar value.
Is pEC50 at least 10? Then 1. If not, 0.

[
  {
    "binder": "19F6-Hu23 (antibody, human IgG1, kappa, V domains shown, humanized, human IgG1 / kappa) VH: QVQLQESGPGLVKPSETLSLTCTVSGYSITSDYAWNWIRQPPGKGLEWMGYISYSGSIRYNPSLKDRITISRDTSKNQFSLKLSSVTAADTAVYYCARGEITYYFDYWGQGTLVTVSS VL: DIQMTQSPSSLSASVGDRVTITCRASTDIDDDMNWYQQKPGKAPKLLIYEGNTLQSGVPSRFSGSGYGTDFTLTISSLQPEDFATYYCLQSNDLPLTFGQGTKLEIKR",
    "category": 0
  },
  {
    "binder": "3D8-Hu86 (antibody, human IgG1, kappa, V domains shown, humanized, human IgG1 / kappa) VH: EVQLVESGGGLVQPGGSLRLSCAASGFTFSSYAMSWVRQAPEKRLEWVSSISSGGSTYYPDSVKGRFTISRDNSKNTLYLQMNSLRAEDTAVYYCARVNYYGYGDYAMDYWGQGTLVTVSS VL: DIQMTQSPSSLSASVGDRVTITCQASQDINSYLSWFQQKPGKSPKTLIYRANRLVTGVPSRFSGSGSGTDYTFTISSLQPEDIATYYCLQYDEFPYTFGGGTKLEIKR",
    "category": 1
  },
  {
    "binder": "19F6-Hu21 (antibody, human IgG1, kappa, V domains shown, humanized, human IgG1 / kappa) VH: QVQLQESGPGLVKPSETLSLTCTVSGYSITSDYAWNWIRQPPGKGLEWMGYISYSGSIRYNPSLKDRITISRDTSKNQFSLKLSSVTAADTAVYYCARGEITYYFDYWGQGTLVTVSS VL: DIQMTQSPSSLSASVGDRVTITCITTTDIDDDMNWYQQKPGKAPKLLISEGNTLRPGVPSRFSGSGYGTDFTLTISSLQPEDFATYYCLQSNDLPLTFGQGTKLEIKR",
    "category": 0
  }
]
